Experiment: in vivo
Conditions: rabbit, topical or ocular, Ct (tissue concentration of azithromycin), Average
Parameter Measured: concentration at 12 h (ng/g)
Provide the reading as a plain figure in ng/g.

Write down concentration at 12 h measured for item CC[C@H]1OC(=O)[C@H](C)[C@@H](O[C@H]2C[C@@](C)(OC)[C@@H](O)[C@H](C)O2)[C@H](C)[C@@H](O[C@@H]2O[C@H](C)C[C@H](N(C)C)[C@H]2O)[C@](C)(O)C[C@@H](C)CN(C)[C@H](C)[C@@H](O)[C@]1(C)O [azithromycin]
222000

###

Test: Azithromycin distribution in aqueous humor after topical application
Assay type: in vivo, white New Zealand rabbits
Details: detection limit 3.8
Parameter Measured: azithromycin concentration in aqueous humor

Write down azithromycin concentration in aqueous humor measured for item CC[C@H]1OC(=O)[C@H](C)[C@@H](O[C@H]2C[C@@](C)(OC)[C@@H](O)[C@H](C)O2)[C@H](C)[C@@H](O[C@@H]2O[C@H](C)C[C@H](N(C)C)[C@H]2O)[C@](C)(O)C[C@@H](C)CN(C)[C@H](C)[C@@H](O)[C@]1(C)O
< 3.8 µg/mL

###

Assay: solubility in aqueous solution
Type: physicochemical
Conditions: aqueous citric acid/phosphate; process of the invention (citric acid/phosphate); read-out: solubility of azithromycin in aqueous solution
Parameter Measured: solubility

Write down solubility measured for item CC[C@H]1OC(=O)[C@H](C)[C@@H](O[C@H]2C[C@@](C)(OC)[C@@H](O)[C@H](C)O2)[C@H](C)[C@@H](O[C@@H]2O[C@H](C)C[C@H](N(C)C)[C@H]2O)[C@](C)(O)C[C@@H](C)CN(C)[C@H](C)[C@@H](O)[C@]1(C)O
> 100 mg/mL
